Where these numbers come from: PubChem BioAssay AID1159580

# Procedure summary: chemical genetic growth profiling, strain panel (AID 1159580);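 further: tested at 20 µM; growth read once vehicle control cultures reached saturation at 30 °C; 1 = growth at the plate median or of vehicle wells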
# Experimental setup: S. cerevisiae deletion strains, growth OD, locus YDR001C, strain nth1
The whole screen tested about 5,500 compounds, of which about 2,000 (36%) were called active. About 18% were inconclusive and are not listed. No stated cut-off is given here; in the data, active means normalized growth mostly below about 0.91 (no sharp cut-off); inconclusive means no clear call, values can overlap the other calls; inactive means mostly above about 0.92. Some of the results follow.
Tick one outcome: active, inactive

NCCc1cnc[nH]1: inactive
CCN(CC)Cc1ccc(Nc2ccnc3cc(Cl)ccc23)cc1O: inactive
Cc1ccccc1C(OCCN(C)C)c1ccccc1 (configuration not stated): inactive
C=C[C@@](C)(O)CCC1C(=C)CCC2[C@@](C)(CO)CCC[C@]12C (some centres not stated): active
COc1ccc(-c2coc3cc(O)ccc3c2=O)cc1: inactive

// query Called result for COc1ccc2c(c1)OC/C(=C\c1ccc(OC)c(O)c1)C2=O
// result inactive

----------
# Procedure summary: chemical genetic growth profiling, strain panel (AID 1159580);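 further: tested at 20 µM; growth read once vehicle control cultures reached saturation at 30 °C; 1 = growth at the plate median or of vehicle wells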
# Experimental setup: S. cerevisiae deletion strains, growth OD, locus YNL271C, strain bni1
About 2,000 (36%) of roughly 5,500 compounds were called active. About 18% were inconclusive and are not listed. No stated cut-off is given here; in the data, active means normalized growth mostly below about 0.91 (no sharp cut-off); inconclusive means no clear call, values can overlap the other calls; inactive means mostly above about 0.92. This is one part of the list.
Tick one outcome: TRUE (active), FALSE (inactive)

Below, 5 compounds whose answers are already recorded.
O=C(O)c1cc2cc(F)ccc2[nH]1: FALSE
O=c1c(-c2ccc(O)cc2)coc2cc(O)ccc12: FALSE
COc1cc2nc(N(C)CCCNC(=O)C3CCCO3)nc(N)c2cc1OC (stereo not given): FALSE
CN1CCC(OC(c2ccccc2)c2ccccc2)CC1: FALSE
COc1ccc(-c2coc3cc(O)ccc3c2=O)cc1: FALSE

// query Called result for COC(=O)/C=C/C(C)=C/C=C/C(C)=C/C=C/C=C(C)/C=C/C=C(C)/C=C/C(=O)O
// result FALSE

// query Called result for C=C1C2CC[C@@]3(C)[C@H](c4ccoc4)OC(=O)C[C@]13O[C@H]1CC(=O)C(C)(C)[C@H](C(OC(C)=O)C(=O)OC)[C@@]21C (stereo not given in full)
// result FALSE

// query Called result for CCC[C@H](N[C@@H](C)C(=O)N1[C@H](C(=O)O)C[C@@H]2CCCC[C@@H]21)C(=O)OCC
// result FALSE

----------
# Procedure summary: chemical genetic growth profiling, strain panel (AID 1159580);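 further: tested at 20 µM; growth read once vehicle control cultures reached saturation at 30 °C; 1 = growth at the plate median or of vehicle wells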
# Experimental setup: S. cerevisiae deletion strains, growth OD, locus YBR229C, strain ROT2
In all, about 5,500 compounds went through this assay and about 2,000 (36%) were called active. About 18% were inconclusive and are not listed. Cut-off read from the data, not from the text of the source: active = normalized growth mostly below about 0.91 (no sharp cut-off); inconclusive = no clear call, values can overlap the other calls; inactive = mostly above about 0.92. The list shows a part of the results.
Tick one outcome: Y for active, N for inactive

// query Called result for C[n+]1c2cc(N)ccc2cc2ccc(N)cc21
// result Y

// query Called result for CCOC(=O)CNc1ccc(F)cc1
// result N

----------
# Procedure summary: chemical genetic growth profiling, strain panel (AID 1159580);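 further: tested at 20 µM; growth read once vehicle control cultures reached saturation at 30 °C; 1 = growth at the plate median or of vehicle wells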
# Experimental setup: S. cerevisiae deletion strains, growth OD, locus YDR054C, strain cdc34, stronger effect = lower value
Among all 5,500 compounds or so, about 2,000 (36%) were called active. Inconclusive results (about 18%) are left out. Some of the results follow.
Attribute measured: normalized growth
One number for each entry.

Study these solved cases before continuing.
O=[N+]([O-])c1ccc(ON=C2CCCCC2)c([N+](=O)[O-])c1: 0.981
C/C(Cc1nnn(-c2cc(C)on2)n1)=N/OC(=O)Nc1ccc(Cl)cc1: 0.975
O=C(c1csc(-c2ccc(Cl)cc2)c1)N1CCCCC1: 0.935
O=C(NCc1ccc(Cl)c(Cl)c1)c1cccnc1OCC(F)(F)F: 0.958

Consider the additional molecule presented here.
// field: normalized growth; key: Cc1cc(C(=O)NNS(=O)(=O)c2ccc(F)c(Cl)c2)nn1-c1c(Cl)cc(Cl)cc1Cl ; value = 0.983
